What Postemergence herbicidal activity (% control) SOY was measured for each of the following?
- Tested on: soybean (Glycine max var. Winchester)
- measurement-protocol: Postemergence herbicidal activity, soybean
- Assay type: in vivo
- reported-conditions: rate of application 0.3 Kg/Ha, rated after 12-17 days
- Procedure: The benzofused heterocyclic compounds of this invention were tested for pre- and postemergence herbicidal activity using a variety of crops and weeds. […] The preemergence flats were initially subjected to a light water spray. […] After 12-17 days the plants were examined and the phytotoxicity data were recorded. […]
Report as a plain number; the unit % is understood.

// returns Postemergence herbicidal activity (% control) SOY for COCOC(C)(C)c1cc2c(Cl)cc(F)c(-n3c(=O)cc(C(F)(F)F)n(C)c3=O)c2o1 [Compound 252] with soybean (Glycine max var. Winchester); value = 95

The reported soybean (Glycine max var. Winchester) Postemergence herbicidal activity (% control) SOY of C=CCOc1nc2c(-n3c(=O)cc(C(F)(F)F)n(C)c3=O)c(F)cc(Br)c2o1 [Compound 110] is 80

# Postemergence herbicidal activity (% control) SOY measured on soybean (Glycine max var. Winchester) for item Cn1c(C(F)(F)F)cc(=O)n(-c2ccc(Cl)c3cc(C(C)(C)C)oc23)c1=O [Compound 226] = 70

Reported soybean (Glycine max var. Winchester) Postemergence herbicidal activity (% control) SOY for item Cn1c(C(F)(F)F)cc(=O)n(-c2c(F)cc(Cl)c3cc(C(C)(C)NS(C)(=O)=O)oc23)c1=O [Compound 255] was 100

Log: soybean (Glycine max var. Winchester), molecule CC(F)c1cc2c(Cl)cc(F)c(-n3c(=O)cc(C(F)(F)F)n(C)c3=O)c2o1 (centres unmarked) [Compound 235] , Postemergence herbicidal activity (% control) SOY = 100

I looked up CN(C)C(=O)c1cc2c(Cl)cc(F)c(-n3c(=O)cc(C(F)(F)F)n(C)c3=O)c2o1 [Compound 275] and its Postemergence herbicidal activity (% control) SOY for soybean (Glycine max var. Winchester) was 100

For Cn1c(C(F)(F)F)cc(=O)n(-c2c(F)cc(Cl)c3c2nc(C(F)(F)F)n3C)c1=O [Compound 399] on soybean (Glycine max var. Winchester), measured Postemergence herbicidal activity (% control) SOY was 95

Recorded Postemergence herbicidal activity (% control) SOY for CON=Cc1cc2c(Cl)ccc(-n3c(=O)cc(C(F)(F)F)n(C)c3=O)c2o1 [Compound 259] on soybean (Glycine max var. Winchester) was 80

====

- System: soybean (Glycine max var. Winchester)
- measurement-protocol: Preemergence herbicidal activity, soybean
- Type: in vivo
- reported-conditions: Rate of Application 0.3 Kg/Ha, examined after 12-17 days
- Method: The benzofused heterocyclic compounds of this invention were tested for pre- and postemergence herbicidal activity using a variety of crops and weeds. […] The preemergence flats were initially subjected to a light water spray. […] After 12-17 days the plants were examined and the phytotoxicity data were recorded. […]
Exercise: for every item that follows, state its recorded PREEMERGENCE HERBICIDAL ACTIVITY (% CONTROL) SOY.
Answer format: numeric, % implied, no suffix.

Item: Cn1c(C(F)(F)F)cc(=O)n(-c2ccc(Cl)c3cc(-c4ccccc4)oc23)c1=O | PREEMERGENCE HERBICIDAL ACTIVITY (% CONTROL) SOY: 0

The recorded PREEMERGENCE HERBICIDAL ACTIVITY (% CONTROL) SOY for Cn1c(C(F)(F)F)cc(=O)n(-c2ccc(Cl)c3cc(C=NO)oc23)c1=O is 30

Measured PREEMERGENCE HERBICIDAL ACTIVITY (% CONTROL) SOY, CC(=O)OCc1nc2c(-n3c(=O)cc(C(F)(F)F)n(C)c3=O)c(F)cc(Br)c2o1 : 80

compound Cn1c(C(F)(F)F)cc(=O)n(-c2ccc(Cl)c3cc(CBr)oc23)c1=O , PREEMERGENCE HERBICIDAL ACTIVITY (% CONTROL) SOY observed: 20

Data origin, for the record: patent US6352958B1
